Tested on: NCI-H460 lung
Assay: NCI tumour cell line growth inhibition, 48 h
assay.endpoint: TGI

Below: 8 molecules and their reported TGI.
* COc1ccc(C2SC(N)=Nc3c2c(C)nn3C(=O)c2ccccc2O)cc1OC (centres undefined) | > 10 µM
* O=c1oc2ccc3ccccc3c2cc1-c1nnc(Nc2ccccc2)s1 | 42.3 µM
* NC(=O)C1CCCN1C(=O)C(Cc1cnc[nH]1)NC(=O)C1CCCC1 (centres undefined) | > 100 µM
* N#Cc1ccc(C(O)C(F)(F)c2nc3ccccc3o2)cc1 (centres undefined) | > 100 µM
* COc1ccc(S(=O)(=O)N2C(=O)CCC2C(=O)NC(N)=O)cc1 (centres undefined) | > 100 µM
* Cc1cc(NC2=CC(=O)C(=O)c3ccccc32)no1 | 23.3 µM
* CC(C)[N+]([O-])(CCCNc1c2ccccc2nc2cccc([N+](=O)[O-])c12)C(C)C | 1.78 µM
* Cc1c(-c2cnccn2)ssc1=S | > 100 µM

Let's switch to this molecule now.
*Q* Find the recorded TGI belonging to Cc1ccc(CC2(C(=O)O)Cc3ccc(C)cc3C2)cc1 (centres undefined) and report it.
*A* > 100 µM
